Origin of the recorded values: ChEMBL document CHEMBL1124836

Measured Ki (Adenosine A2 receptor (Rattus norvegicus, UniProt P29276+P30543))
State just the number; it will be interpreted in nM.

Below: 5 compounds and their reported Ki.
Compound	Ki [nM]
CCNC(=O)[C@H]1OC(n2cnc3c(N)nc(NCCc4ccc(Cl)cc4)nc32)[C@H](O)[C@@H]1O (some centres not stated)	7.5
CCNC(=O)[C@H]1O[C@@H](n2cnc3c(N)nc(NCCc4ccc(OCC(=O)O)cc4)nc32)[C@H](O)[C@@H]1O	42
Nc1nc(NCCc2ccccc2)nc2c1ncn2[C@@H]1O[C@H](C(=O)NC2CC2)[C@@H](O)[C@H]1O	14
CNC(=O)[C@H]1O[C@@H](n2cnc3c(N)nc(NCCc4ccccc4)nc32)[C@H](O)[C@@H]1O	77
Nc1nc(Nc2ccccc2)nc2c1ncn2[C@@H]1O[C@H](CO)[C@@H](O)[C@H]1O	71

Find Ki (Adenosine A2 receptor (Rattus norvegicus, UniProt P29276+P30543)) for the entry `CCNC(=O)[C@H]1O[C@@H](n2cnc3c(N)nc(NCCc4ccc(CC(=O)O)cc4)nc32)[C@H](O)[C@@H]1O`
45

And what about the compound CC(=O)O[C@]1(C(C)=O)CC[C@H]2[C@@H]3C=C(Cl)C4=CC(=O)[C@@H]5C[C@@H]5[C@]4(C)[C@H]3CC[C@@]21C [CYPROTERONE ACETATE] ?
636

---

Each item that follows carries a reported Ratio.
experiment: Ratio of A1-receptor binding to that of A2-receptor binding
The reply should be a number, written without any unit.

Below: 3 molecules and their reported Ratio.
Molecule	Property	Numeric value
CCNC(=O)[C@H]1O[C@@H](n2cnc3c(N)nc(NCCc4ccc(OCC(=O)O)cc4)nc32)[C@H](O)[C@@H]1O	Ratio	101
Nc1nc(NCCc2ccccc2)nc2c1ncn2[C@@H]1O[C@H](C(=O)NC2CC2)[C@@H](O)[C@H]1O	Ratio	36
CC(=O)O[C@]1(C(C)=O)CC[C@H]2[C@@H]3C=C(Cl)C4=CC(=O)[C@@H]5C[C@@H]5[C@]4(C)[C@H]3CC[C@@]21C [CYPROTERONE ACETATE]	Ratio	0.002

Next up:
Field request: Ratio | item: `CCNC(=O)[C@H]1O[C@@H](n2cnc3c(N)nc(N(C)CCc4ccccc4)nc32)[C@H](O)[C@@H]1O`
170

---

Measured Ki (Adenosine A2 receptor (Rattus norvegicus, UniProt P29276+P30543))
State just the number; it will be interpreted in µM.

Below: 3 compounds and their reported Ki.
Smiles structure	Unit text	Ki
CCNC(=O)[C@H]1O[C@@H](n2cnc3c(N)nc(NCCc4ccc(CCC(=O)OC)cc4)nc32)[C@H](O)[C@@H]1O	µM	0.009
CCNC(=O)[C@H]1O[C@@H](n2cnc3c(N)nc(N(C)CCc4ccccc4)nc32)[C@H](O)[C@@H]1O	µM	0.071
CCNC(=O)[C@H]1O[C@@H](n2cnc3c(N)nc(NCc4ccccc4)nc32)[C@H](O)[C@@H]1O	µM	1.13

Field request: Ki | item: `CCNC(=O)[C@H]1O[C@@H](n2cnc3c(N)nc(NCCc4ccc(F)cc4)nc32)[C@H](O)[C@@H]1O`
0.0077

---

target: Adenosine receptor A1 (Rattus norvegicus); assay: Adenosine A1 receptor binding was measured in adenosine deaminase (ADA) pretreated rat cortical membranes using [3H]cyclohexyladenosine in the presence of 2-chloroadenosine
Sequence (P25099 whole entry): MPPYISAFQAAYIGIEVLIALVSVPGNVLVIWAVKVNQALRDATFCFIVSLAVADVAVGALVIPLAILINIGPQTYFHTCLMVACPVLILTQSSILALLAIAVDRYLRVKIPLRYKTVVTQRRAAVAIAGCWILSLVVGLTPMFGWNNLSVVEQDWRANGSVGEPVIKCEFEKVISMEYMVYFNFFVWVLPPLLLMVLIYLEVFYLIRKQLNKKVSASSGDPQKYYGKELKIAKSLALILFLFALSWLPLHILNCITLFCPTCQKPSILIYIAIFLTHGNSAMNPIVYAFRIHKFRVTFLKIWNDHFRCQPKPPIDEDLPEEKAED
Property: Ki (µM)
State just the number; it will be interpreted in µM.

Below: 7 molecules and their reported Ki.
Smiles structure	Assayed system	Ki [µM]
CNC(=O)[C@H]1O[C@@H](n2cnc3c(N)nc(NCCc4ccccc4)nc32)[C@H](O)[C@@H]1O	Adenosine receptor A1 (Rattus norvegicus)	5.35
CNC(=O)[C@H]1O[C@@H](n2cnc3c(N)ncnc32)[C@H](O)[C@@H]1O	Adenosine receptor A1 (Rattus norvegicus)	0.101
CCNC(=O)[C@H]1O[C@@H](n2cnc3c(N)nc(NCCc4ccc(CCC(=O)OC)cc4)nc32)[C@H](O)[C@@H]1O	Adenosine receptor A1 (Rattus norvegicus)	1.26
CCNC(=O)[C@H]1O[C@@H](n2cnc3c(N)nc(NCCc4ccc(OCC(=O)O)cc4)nc32)[C@H](O)[C@@H]1O	Adenosine receptor A1 (Rattus norvegicus)	4.25
Nc1nc(NCCc2ccccc2)nc2c1ncn2[C@@H]1O[C@H](C(=O)NC2CC2)[C@@H](O)[C@H]1O	Adenosine receptor A1 (Rattus norvegicus)	0.502
CCNC(=O)[C@H]1O[C@@H](n2cnc3c(N)nc(NCc4ccccc4)nc32)[C@H](O)[C@@H]1O	Adenosine receptor A1 (Rattus norvegicus)	8.6
CCNC(=O)[C@H]1O[C@@H](n2cnc3c(N)nc(NCCc4ccc(CC(=O)O)cc4)nc32)[C@H](O)[C@@H]1O	Adenosine receptor A1 (Rattus norvegicus)	4.88

Next up:
Field request: Ki | item: `CCNC(=O)[C@H]1O[C@@H](n2cnc3c(N)nc(NCCc4ccc(F)cc4)nc32)[C@H](O)[C@@H]1O`
1.18
